Some molecules, each annotated with its measured pKd.
- target of assay: UniProt:P01116
- assay name: Binding to KRAS by surface plasmon resonance (SPR), dissociation constant KD
- setup conditions: Single Cycle Kinetics, 1:1 binding model
pKd is defined as minus the log10 of a concentration measured in mol/L.

[[record]]
structure = "CC[C@H](C)[C@@H]1NC(=O)[C@H](CC(C)C)N(C)C(=O)C[C@@H](C(=O)N(C)C)N(C)C(=O)[C@H](C2CCCC2)N(C)C(=O)C2(CCC2)NC(=O)[C@@H]2CCCN2C(=O)[C@H](CCc2cc(F)c(C(F)(F)F)c(F)c2)NC(=O)CN(C)C(=O)[C@H](Cc2ccc(C(F)(F)F)cc2)N2CC/C=C\\C[C@@H](C2=O)N(C)C(=O)CN(C)C1=O"
target_of_assay = "UniProt:P01116"
test_readout = "pKd"
reported_result = 9.96


Here is another molecule to look at.
Query: Enter measured pKd, system UniProt:P01116, for the molecule shown: CCO[C@@H]1C[C@H]2C(=O)NC3(CCC3)C(=O)N(C)[C@@H](C(CC)CC)C(=O)N(C)[C@H](C(=O)N3CCCC3)CC(=O)N(C)[C@@H](COC)C(=O)N[C@@H]([C@@H](C)CC)C(=O)N(C)CC(=O)N(C)[C@H]3C/C=C\CCN(C3=O)[C@@H](CC3CCCCC3)C(=O)N(C)CC(=O)N[C@@H](CCc3cc(F)c(C(F)(F)F)c(F)c3)C(=O)N2C1
Response: 9.26

====

- target of assay: GDP-bound KRAS wild-type protein (Homo sapiens)
- Sequence (P01116 1-188 isoform P01116-2): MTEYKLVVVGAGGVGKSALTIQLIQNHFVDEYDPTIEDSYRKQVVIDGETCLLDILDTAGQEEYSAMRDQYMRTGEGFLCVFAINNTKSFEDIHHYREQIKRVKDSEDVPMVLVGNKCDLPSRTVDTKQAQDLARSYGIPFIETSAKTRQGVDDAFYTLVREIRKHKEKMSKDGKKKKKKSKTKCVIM
- assay name: Binding to KRAS by surface plasmon resonance (SPR), dissociation constant KD
- setup conditions: 1:1 binding model
- Protocol: Surface plasmon resonance was used to analyze the binding affinity of compounds for KRAS, NRAS, and HRAS. […] The resulting sensorgram was subjected to curve fitting based on a 1:1 binding model on Biacore Insight Evaluation Software or T200 Evaluation Software, and thereby the dissociation constant KD of each compound with respect to KRAS, NRAS, and HRAS was determined. […]
Some molecules, each annotated with its measured log10 Kd.
The figures below represent log10 of Kd, where Kd is stated in nM.

Some solved entries appear below for comparison.
[[record]]
structure = "CCC[C@H]1C(=O)N[C@@H]([C@@H](C)CC)C(=O)N(C2CC2)CC(=O)N(C)[C@H]2C/C=C\\CCN(C2=O)[C@@H](CC2CCC(F)(F)CC2)C(=O)N(C)CC(=O)N[C@@H](CCc2cc(F)c(C(F)(F)F)c(F)c2)C(=O)N2C[C@H](OCC)C[C@H]2C(=O)NC2(CC(C)(C)C2)C(=O)N(C)[C@@H](C2CCCC2)C(=O)N(C)[C@H](C(=O)N(C)C)CC(=O)N1C"
reported_result = -0.24

[[record]]
structure = "CCC[C@H]1C(=O)N[C@@H](CC(C)C)C(=O)N(CC)CC(=O)N(C)[C@H]2C/C=C\\CCN(C2=O)[C@@H](Cc2ccc(C)cc2)C(=O)N(C)CC(=O)N[C@@H](CCc2ccc(C(F)(F)F)c(Cl)c2)C(=O)N2C[C@H](OCC)C[C@H]2C(=O)NC2(CCC2)C(=O)N(C)[C@@H](C2CCCC2)C(=O)N(C)[C@H](C(=O)N(C)C)CC(=O)N1C"
reported_result = 0.63

[[record]]
structure = "CCO[C@@H]1C[C@H]2C(=O)NC3(CCC3)C(=O)N(C)[C@@H](C3CCCC3)C(=O)N(C)[C@H](C(=O)N(C)C)CC(=O)N(C)[C@@H](CC3CCCC3)C(=O)N[C@@H]([C@@H](C)CC)C(=O)N(C)CC(=O)N(C)[C@H]3C/C=C\\CCN(C3=O)[C@@H](Cc3ccc(C)cc3)C(=O)N(C)CC(=O)N[C@@H](CCc3ccc(CC)c(F)c3)C(=O)N2C1"
reported_result = 0.52

[[record]]
structure = "CCO[C@@H]1C[C@H]2C(=O)NC3(CC(C)(C)C3)C(=O)N(C)[C@@H](C3CCCC3)C(=O)N(C)[C@H](C(=O)N(C)C)CC(=O)N(C)[C@@H]([C@H](C)OC)C(=O)N[C@@H]([C@@H](C)CC)C(=O)N(C3CC3)CC(=O)N(C)[C@H]3C/C=C\\CCN(C3=O)[C@@H](Cc3ccc(C)cc3)C(=O)N(C)CC(=O)N[C@@H](CCc3ccc(C(F)(F)F)c(OC)c3)C(=O)N2C1"
reported_result = -0.31

[[record]]
structure = "CCC[C@H]1C(=O)N[C@@H]([C@@H](C)CC)C(=O)N(C2CC2)CC(=O)N(C)[C@H]2C/C=C\\CCN(C2=O)[C@@H](Cc2ccc(C)cc2)C(=O)N(C)CC(=O)N[C@@H](CCc2cc(F)c(C(F)(F)F)c(F)c2)C(=O)N2C[C@H](OCC)C[C@H]2C(=O)NC2(CC(C)(C)C2)C(=O)N(C)[C@@H](CC(C)(C)C)C(=O)N(C)[C@H](C(=O)N(C)C)CC(=O)N1C"
reported_result = -0.48


Here is another molecule to look at.
Query: Enter measured log10 Kd, system GDP-bound KRAS wild-type protein (Homo sapiens), for the molecule shown: CCOC[C@H]1C(=O)N[C@@H]([C@@H](C)CC)C(=O)N(C)CC(=O)N(C)[C@H]2C/C=C\CCN(C2=O)[C@@H](Cc2ccc(C(F)(F)F)cc2)C(=O)N(C)CC(=O)N[C@@H](CCc2ccc(C(F)(F)F)c(OC)c2)C(=O)N2C[C@H](OCC)C[C@H]2C(=O)N(C)C2(CCC2)C(=O)N(C)[C@@H](C(CC)CC)C(=O)N(C)[C@H](C(=O)N(C)C)CC(=O)N1C
Response: -0.92

====

- target of assay: GDP-bound KRAS wild-type protein (Homo sapiens)
- assay name: Binding to KRAS by surface plasmon resonance (SPR), dissociation constant KD
- setup conditions: Single Cycle Kinetics
Some compounds, each annotated with its measured pKd.
pKd is defined as minus the log10 of a concentration measured in mol/L.

Some solved entries appear below for comparison.
[[record]]
compound = "CCO[C@@H]1C[C@H]2C(=O)OC3(CCC3)C(=O)N(C)[C@@H](C3CCCC3)C(=O)N(C)[C@H](C(=O)N(C)C)CC(=O)N(C)[C@@H]([C@@H](C)OC)C(=O)N[C@@H]([C@@H](C)CC)C(=O)N(C3CC3)CC(=O)N(C)[C@H]3C/C=C\\CCN(C3=O)[C@@H](Cc3ccc(C(F)(F)F)cc3)C(=O)N(C)CC(=O)N[C@@H](CCc3ccc(C(F)(F)F)c(OC)c3)C(=O)N2C1 [PP3375]"
reported_result = 9.39

[[record]]
compound = "CCO[C@@H]1C[C@H]2C(=O)OC3(CCC3)C(=O)N(C)[C@@H](C3CCCC3)C(=O)N(C)[C@H](C(=O)N(C)C)CC(=O)N(C)[C@@H](CC(C)C)C(=O)N[C@@H]([C@@H](C)CC)C(=O)N(C)CC(=O)N(C)[C@H]3C/C=C\\CCN(C3=O)[C@@H](Cc3ccc(C(F)(F)F)cc3)C(=O)N(C)CC(=O)N[C@@H](CCc3ccc(C(F)(F)F)c(OC)c3)C(=O)N2C1 [PP3364]"
reported_result = 9.80


Here is another compound to look at.
Query: Assign pKd to the following record: CCO[C@@H]1C[C@H]2C(=O)NC3(CCCC3)C(=O)N(C)[C@@H](C3CCCC3)C(=O)N(C)[C@H](C(=O)N(C)C)CC(=O)N(C)[C@@H](CC(C)C)C(=O)N[C@@H]([C@@H](C)CC)C(=O)N(C)CC(=O)N(C)[C@H]3C/C=C\CCN(C3=O)[C@@H](Cc3ccc(C)cc3)C(=O)N(C)CC(=O)N[C@@H](CCc3cc(F)c(C(F)(F)F)c(F)c3)C(=O)N2C1 [PP3478]
Response: 9.96

====

Some molecules, each annotated with its measured Kd.
- target of assay: UniProtKB P01116
- assay name: Binding to KRAS by surface plasmon resonance (SPR), dissociation constant KD
- setup conditions: Single Cycle Kinetics
- Method: Surface plasmon resonance was used to analyze the binding affinity of compounds for KRAS, NRAS, and HRAS. […] The resulting sensorgram was subjected to curve fitting based on a 1:1 binding model on Biacore Insight Evaluation Software or T200 Evaluation Software, and thereby the dissociation constant KD of each compound with respect to KRAS, NRAS, and HRAS was determined. […]
Response body: numeric value in nM, unit text excluded.

Some solved entries appear below for comparison.
[[record]]
molecule = "CC[C@H](C)[C@@H]1NC(=O)[C@H](CC(C)C)N(C)C(=O)C[C@@H](C(=O)N2CCOCC2)N(C)C(=O)[C@H](C2CCCC2)N(C)C(=O)C2(CCC2)NC(=O)[C@@H]2[C@@H](O)CCN2C(=O)[C@H](CCc2cc(F)c(C(F)(F)F)c(F)c2)NC(=O)CN(C)C(=O)[C@H](Cc2ccc(C(F)(F)F)cc2)N2CCCCC[C@@H](C2=O)N(C)C(=O)CN(C)C1=O [PP0872]"
value_unit = "nM"
reported_result = 1.7

[[record]]
molecule = "CCC[C@H]1C(=O)N[C@@H]([C@@H](C)CC)C(=O)N2CCCCC[C@H]2C(=O)N(C)[C@H]2C/C=C\\CCN(C2=O)[C@@H](Cc2ccc(C(F)(F)F)cc2)C(=O)N(C)CC(=O)N[C@@H](CCc2ccc(C(F)(F)F)c(OC)c2)C(=O)N2C[C@H](OCC)C[C@H]2C(=O)N(C)C2(CCC2)C(=O)N(C)[C@@H](C2CCCC2)C(=O)N(C)[C@H](C(=O)N(C)C)CC(=O)N1C [PP3276]"
value_unit = "nM"
reported_result = 4

[[record]]
molecule = "CCO[C@@H]1C[C@H]2C(=O)OC3(CCC3)C(=O)N(C)[C@@H](C3CCCC3)C(=O)N(C)[C@H](C(=O)N(C)C)CC(=O)N(C)[C@@H](CC(C)C)C(=O)N[C@@H]([C@@H](C)CC)C(=O)N(C3CC3)CC(=O)N(C)[C@H]3C/C=C\\CCN(C3=O)[C@@H](Cc3ccc(C(F)(F)F)cc3)C(=O)N(C)CC(=O)N[C@@H](CCc3ccc(C(F)(F)F)c(OC)c3)C(=O)N2C1 [PP3363]"
value_unit = "nM"
reported_result = 1.8

[[record]]
molecule = "CCC[C@H]1C(=O)N[C@@H](C2CCCC2)C(=O)N(C)CC(=O)N(C)[C@H]2C/C=C\\CCN(C2=O)[C@@H](Cc2ccc(C(F)(F)F)cc2)C(=O)N(C)CC(=O)N[C@@H](CCc2ccc(C(F)(F)F)c(Cl)c2)C(=O)N2CC3(CC3)C[C@H]2C(=O)N(C)C2(CCC2)C(=O)N(C)[C@@H]([C@@H](C)CC)C(=O)N(C)[C@H](C(=O)N(C)C)CC(=O)N1C [PP3323]"
value_unit = "nM"
reported_result = 1.3

[[record]]
molecule = "CCC[C@H]1C(=O)N[C@@H]([C@@H](C)CC)C(=O)N2CCC[C@H]2C(=O)N(C)[C@H]2C/C(F)=C\\CCN(C2=O)[C@@H](Cc2ccc(C)cc2)C(=O)N(C)CC(=O)N[C@@H](CCc2ccc(C(F)(F)F)c(OC)c2)C(=O)N2C[C@H](OCC)C[C@H]2C(=O)N(C)C2(CCC2)C(=O)N(C)[C@@H](C2CCCC2)C(=O)N(C)[C@H](C(=O)N(C)C)CC(=O)N1C [PP3524]"
value_unit = "nM"
reported_result = 0.24


Here is another molecule to look at.
Query: Assign Kd to the following record: CCO[C@@H]1C[C@H]2C(=O)NC3(CCC3)C(=O)N(C)[C@@H](C3CCCC3)C(=O)N(C)[C@H](C(=O)N(C)C)CC(=O)N(C)[C@@H](CC)C(=O)N[C@@H]([C@@H](C)CC)C(=O)N(C)CC(=O)N(C)[C@H]3CCCCN(C3=O)[C@@H](Cc3ccc(C(F)(F)F)cc3)C(=O)N(C)CC(=O)N[C@@H](CCc3ccc4ccsc4c3)C(=O)N2C1 [PP0888]
Response: 0.17

These data points were gathered from patent EP4603105A1.
